system: Klotho gene expression; test: Luciferase reporter assay to evaluate Klotho gene expression changes; assay type: cell-based; details: HEK293 cells/pKlotho_Luc, overnight incubation, luciferase luminescence
Listed next: entries and their corresponding Activation, %.
measurementName: Activation, % (%)

> print(dat)
                                    compound  recordednumber
 1   CC(C)CNc1ncnc2c1ncn2C1CC1 [Compound 35]              40
 2  CCn1ncc2c(NCCC3CC=CCC3)ncnc21 (centres unmarked) [Compound 26]             121
 3  N#CCCn1ncc2c(NCCC3=CCCCC3)ncnc21 [Compound 20]             120
 4  Fc1ccccc1-n1ncc2c(NCCC3=CCCCC3)ncnc21 [Compound 4]             105
 5  CC1(CNc2ncnc3c2ncn3C2CC2)CCCCC1 [Compound 39]              77
 6  Cc1cc2c(NCCC3=CCCCCC3)ncnc2s1 [Compound 18]              48
 7  C1=C(CCNc2ncnc3c2ncn3C2CC2)CCCCC1 [Compound 38]             105
 8  C1=C(CCNc2ncnc3c2ncn3C2CC2)CCCC1 [Compound 37]             103
 9  C1=C(CCNc2ncnc3ccsc23)CCCCC1 [Compound 24]             122
10  C1=C(CCNc2ncnc3c2cnn3-c2ccccc2)CCCC1 [Compound 15]             203
11  Nc1c(NCCC2=CCCCC2)ncnc1-n1cccn1 [Compound 11]             125
12  C1=CC[C@@H](CNc2ncnc3c2ncn3C2CC2)CC1 [Compound 48]              86
13  c1nc(NCC2CCC2)c2ncn(C3CC3)c2n1 [Compound 36]              68
14  Fc1ccccc1-n1ncc2c(NCCC3=CCCCCC3)ncnc21 [Compound 5]              61

Data origin: patent US20240189278A1
